Measured values drawn from PubChem BioAssay (NCI) for this set.

System: MALME-3M melanoma
Assay: NCI-60 one-dose screen, 48 h (100 = growth as untreated, 0 = no growth, -100 = all killed)
Details: 10 µM unless noted
Experimental: Cells are grown in 96 well plates and exposed to the test compound for 48 hours. Compounds are tested at a single concentration, which is 10^-5 M for most compounds. The reported endpoint is percent growth (GI% or GIPRCNT), where numbers from 0 - 100% represent growth inhibition, and numbers from -100% - 0 represent cell death. For example, a value of 40 represents 60% growth inhibition. A value of 0 means no net growth occurred over the course of the experiment. […]
This is part of a sample that, as a whole, favours compounds with a hit. Of some 83,000 tested, about 20% had one in any assay.
measured-quantity: growth (%)
Give the number; % is assumed, so skip it.

(Q) I would be grateful if you could share the reported growth for SCc1ccc(CS)cc1 .
(A) 106

(Q) Look up growth: COc1ccc([C@@H]2[C@@H](Cl)C(=O)N2c2cc(OC)c(OC)c(OC)c2)cc1C
(A) 76

(Q) // lookup growth for Brc1ccccc1Cn1c(-c2cncs2)nc2ccccc21
(A) 98

(Q) // query growth value for entry COc1cccc(NC(=O)[C@H](C(C)C)n2c(=O)[nH]c3ccccc3c2=O)c1
(A) 104

(Q) Which growth value belongs to CNCCCNc1ccnc2cc(Cl)ccc12 ?
(A) -90.3

(Q) Item CCOC(=O)Nc1ccc2nc(-c3cscn3)[nH]c2c1 has what recorded growth?
(A) 22

(Q) Requested field: growth. Item: CCc1oc2ccccc2c1C(=O)c1cc(I)c(O)c(I)c1
(A) 53

(Q) Fill blank: measured growth of the molecule COc1ccc(-c2nc(-c3cc(OC)cc(OC)c3)[nH]c2-c2ccc(OC)cc2)cc1 is ____.
(A) 70.9

(Q) I'd like to know its growth. The molecule in question is O=C(Nc1ccc(Cl)c(C(F)(F)F)c1)c1ccc(Nc2ccc(Cl)nn2)cc1
(A) 106

(Q) I would be grateful if you could share the reported growth for CC(C)N1CCN(c2ccncc2S(=O)(=O)N2CCN(C)CC2)CC1 .
(A) 113

(Q) Tell me the measured growth of COc1ccc(NC(=O)c2ccc(C(F)(F)F)nc2Nc2ccc(Cl)cc2C)cc1Cl , please.
(A) 34.8

(Q) Which growth reading was recorded for the molecule COc1cc2c(cc1C)NC(=O)/C2=C\c1c[nH]c2ccccc12 ?
(A) 75.9

(Q) Consider the molecule O=Cc1ccc2nc(C(Cl)(Cl)Cl)ccc2c1 and give its measured growth.
(A) 91.4

(Q) Give the measured growth of CCCCC(CCc1ccccn1)C(=O)c1ccccc1 (configuration not stated) .
(A) 119

(Q) Give the measured growth of COc1ccc(-c2n[nH]nc2-c2cc(OC)c3c(c2)OCO3)cc1 .
(A) 34

(Q) # input molecule: C#CC[C@@H]1C[C@]2(C)[C@H]3CC[C@@H]4[C@H]5C(C(=C)C)CC[C@]5(C(=O)NCCCCCCCCN)CC[C@@]4(C)[C@]3(C)CC[C@H]2C(C)(C)[C@H]1OC(C)=O (some centres not stated) ; wanted: its growth
(A) 111

(Q) So what's the measured growth for this one? Clc1ccccc1Nc1nnc(-c2ccncc2)s1
(A) 109

(Q) Given the molecule Cc1cc(C)cc(Nc2cc(C)nc3nc(C(F)(F)F)nn23)c1 , what is its reported growth?
(A) 45.5

(Q) Fill blank: measured growth of the molecule CC1(C)C2CCC(O)(C(=O)O)C1C2 (configuration not stated) is ____.
(A) 109

(Q) Returns the measured growth for the input molecule. Input: COc1cc(/C=C/C(=O)c2ccc(NC(=O)CSc3nnc(-c4ccc(Cl)cc4)n3-c3ccccc3)cc2)cc(OC)c1OC
(A) 101

(Q) I have this molecule here, Cc1cc(NC(=O)c2ccc(N)cc2)ccc1N=Nc1ccc2cc(S(=O)(=O)O)cc(S(=O)(=O)O)c2c1 , and I need its recorded growth.
(A) 116

(Q) Name the recorded growth for CCCc1cc2c(cc1CN(Cc1cc3c(cc1CCC)OCO3)C(=N)OCC)OCO2 .
(A) 82.8

###

Test system: RPMI-8226 leukemia
Experiment: NCI-60 one-dose screen, 48 h (100 = growth as untreated, 0 = no growth, -100 = all killed)
Conditions: 10 µM unless noted
This is part of a sample that, as a whole, favours compounds with a hit. Of some 83,000 tested, about 20% had one in any assay.
Provide the reported growth of each item.
Report the figure in % without appending any unit label.

(Q) GET /values?readout=growth&item= Nc1n[nH]c2ccc([C@@H]3Nc4c(F)cc5[nH]ncc5c4[C@H]4C5CCC(C5)[C@@H]34)cc12 (some centres not stated)
(A) 21.3

(Q) Look up growth for this molecule: COc1ccc2cc(-c3nc(C)c(C(C)=O)c(-c4ccc(C)cc4)n3)ccc2c1
(A) 86.9

(Q) Which growth value belongs to C#CC[C@@H]1C[C@]2(C)[C@H]3CC[C@@H]4[C@H]5C(C(=C)C)CC[C@]5(C(=O)NCCN(CCN)CCN)CC[C@@]4(C)[C@]3(C)CC[C@H]2C(C)(C)[C@H]1OC(C)=O (some centres not stated) ?
(A) 58.3

(Q) Any idea what growth was measured for Nc1ncnc2c1N=C(c1ccc(F)cc1)CC(c1sc(Cl)nc1Cl)N2 (configuration not stated) ?
(A) 76.5

(Q) Dear colleague, I am looking for the recorded growth of the following molecule: CCOC(=O)c1ccc(NCCC(=O)O)cc1
(A) 115

(Q) Which growth reading was recorded for the molecule Clc1ccc(Nc2ncnc3c2sc2ncccc23)c(Cl)c1 ?
(A) 30

(Q) # growth lookup, item CCN(CC)CCC(CNc1ccnc2cc(Cl)ccc12)c1ccc(O)cc1 (configuration not stated)
(A) 51.3

(Q) # query: growth of entry CCCCCCCCCCCCCCC(C(=O)OCC)C(=O)OCC
(A) 104

(Q) Endpoint output: growth of COc1ccc2[nH]c(C(=O)OCc3ccc4c(Br)cc(Br)c(O)c4n3)cc2c1 . Value?
(A) -24.2

(Q) Return reported growth; argument: Cc1cccc(C(=O)O)n1
(A) -8.6

(Q) What value of growth has been recorded for this entry: COc1cc(-c2n/c(=C\c3c(O)[nH]c4cc(Cl)ccc34)cc3c2=Nc2ccccc2-3)cc(OC)c1OC
(A) 84.6

(Q) Need growth of CC1(C)C2CCC(O)(C(=O)O)C1C2 (configuration not stated) , thanks.
(A) 114

(Q) Reported growth for COc1ccc(C(=O)/C=C/c2cn(-c3ccccc3)nc2-c2cccc(Nc3ccnc4cc(Cl)ccc34)c2)cc1 : what is it?
(A) 66.7

(Q) # get_value(readout='growth', item= CCOC(=O)c1ccc(NC(=O)NC2=NCCS2)cc1 )
(A) 13.9

(Q) Which growth value is on record for O=c1c2sc3ncc(Cl)cc3c2nnn1-c1cccc(Cl)c1 ?
(A) 82.4

(Q) // returns reported growth for input CS(=O)(=O)Nc1cc(-c2cc3ncc(C#N)c(Nc4ccc(Oc5ccccc5)c(Cl)c4)c3s2)cnc1Cl
(A) 62.7

(Q) Entry CC(=O)N1N=C(c2ccc(C)cc2)CC1c1cn(-c2ccccc2)nc1-c1cccc(Nc2ccnc3cc(Cl)ccc23)c1 (configuration not stated) : reported growth = ?
(A) -11

(Q) GET /values?readout=growth&item= COc1ccc(-n2nc(C(=O)NCC(=O)Nc3nc4cc(OC)ccc4s3)c3ccccc3c2=O)cc1
(A) 39.1

(Q) Sample COc1ccc(C(=O)C(C#N)c2cc(OC)c(OC)c(OC)c2)cc1 (configuration not stated) — what was its growth?
(A) 96.7

(Q) What value of measured growth is listed for CN(C)c1ccc(/C=C(\C#N)c2nc3ccccc3n2C)cc1 ?
(A) 15.8

(Q) Field request: growth | item: Clc1ccc2c(c1)-c1ccccc1C1=NCCN12
(A) 33

(Q) Any idea what its growth is? The molecule is O=S(=O)(NCC[C@@H]1C[C@H]1c1ccc2ccccc2c1)c1ccc(C(F)(F)F)cc1
(A) 76

(Q) Which measured growth value corresponds to Nc1c(C(=O)Nc2cccc(Cl)c2)sc2ncc(Br)cc12 ?
(A) 71.3

(Q) // growth lookup, key: CC1=C(C(=O)Nc2ccc(F)cc2)C(c2ccc(Cl)cc2)C2=C(CC(C)(C)CC2=O)N1 (configuration not stated)
(A) 70

(Q) Please give the measured growth for this molecule: CCc1ccc(Nc2cc(C)c3ccc(O)cc3n2)cc1
(A) 29.9

(Q) Returns the measured growth for the input molecule. Input: Cc1cc(-c2nnc(/C=C/c3ccc4c(c3)OCO4)o2)n[nH]1
(A) 66.5

(Q) Data request, read-out growth, for O=c1[nH]cnc2nc[nH]c12
(A) 93.5

(Q) If you can, please state the reported growth value of CC(C)=CCC[C@H](C)c1ccc(C)c2c1OCN(CCO)C2 .
(A) 83.2

(Q) // query growth value for entry COc1cccc(CC(C)=C(c2ccc(OCCCN(C)C)cc2)c2ccc(OCCCN(C)C)cc2)c1
(A) -53.9

(Q) Endpoint output: growth of Cc1ccc(C2CC(c3cccs3)=NN2c2ccc(S(N)(=O)=O)cc2)s1 (configuration not stated) . Value?
(A) 65.3

(Q) Looking for the measured growth of CCCCCCCCCCC(C(O)c1ccccc1)N1CCCCC1 (configuration not stated) , can you help?
(A) -50.3

(Q) Value lookup for growth; key = O=C1OCC2=C1C(c1ccc(Cl)c(Cl)c1)c1cc3c(cc1N2CCO)CCC3 (configuration not stated)
(A) 22

(Q) What value of growth has been recorded for this entry: O=C(NC1CC1)c1ccc(-c2nc3ccc4[nH]ncc4c3c3c2CCCC3)cc1
(A) 50.5

(Q) Using the record for CCOP(=O)(O)OP(=O)(O)OCC , report its growth.
(A) 95.8

(Q) // returns reported growth for input COc1ccc(C2=CC(c3ccc(OC)cc3Br)N3C=CSC3=N2)cc1 (configuration not stated)
(A) -9.05

(Q) Given the molecule Cn1nc(C(F)(F)F)cc1-c1cc(Cl)c(OCc2ccc(Cl)cc2)c(-c2ccc(Cl)c(C(F)(F)F)c2)c1O , what is its reported growth?
(A) -21.8

(Q) Can you share its growth? I mean this molecule: COc1ccc(/C(=C\c2cc(OC)c(OC)c(OC)c2)C(=O)N2CCCNCC2)cc1
(A) 107

(Q) Give its growth value. Item: Cc1nc2ccc(Nc3nc(N4CCOCC4)nc(N4CCN(C)CC4)n3)cc2n1Cc1ccccc1
(A) 65.4

(Q) Find the recorded growth belonging to COC(=O)c1cc(Cl)cc([N+](=O)[O-])c1O and report it.
(A) 93.3

(Q) Please give the measured growth for this molecule: COc1ccc(C2=Nn3c(nnc3-c3ccc(Cl)cc3N)SC2)cc1
(A) 103

(Q) Given the molecule CCN(CC)c1ccc(C(=N)c2ccc(N(C)C)cc2)cc1 , what is its reported growth?
(A) 6.17

(Q) What value of measured growth is listed for CCOC(=O)Nc1ccc2nc(-c3cscn3)[nH]c2c1 ?
(A) 43.1
